observation-type: melting point

Exam item: melting point for Cn1cncc1C(N)=O ?
Marked response: 178 to 180 °C

Exam item: melting point for Cn1nc(C(C)(C)C)cc1NC(=O)CCl ?
Marked response: 138 to 140 °C

Exam item: melting point for O=C(O)CCc1ccc(S(=O)(=O)Cl)cc1 ?
Marked response: 157 to 159 °C

Exam item: melting point for NC(=O)Cc1ccccc1Cl ?
Marked response: 178 to 180 °C

Exam item: melting point for CC(Cl)C1CC(c2ccccc2)=NO1 (centres undefined) ?
Marked response: 59 to 61 °C

Exam item: melting point for O=C(O)CCc1nnc(-c2ccsc2)o1 ?
Marked response: 159 to 161 °C

Exam item: melting point for O=C(O)C1CCCCN1C(=O)c1cccnc1 (centres undefined) ?
Marked response: 188 to 190 °C

Exam item: melting point for COC(=O)c1cc(Br)cc(S(N)(=O)=O)c1 ?
Marked response: 138 to 140 °C

Exam item: melting point for Cn1cccc1C=CC(=O)O ?
Marked response: 153 to 155 °C

Exam item: melting point for CC(C)c1ccc(O)c(C(=O)O)c1 ?
Marked response: 123 to 125 °C

Exam item: melting point for O=C(O)c1cc(Cl)c2cc(Cl)ccc2n1 ?
Marked response: 194 to 196 °C

Exam item: melting point for CC(=O)c1ccc(-n2ccnc2C)cc1 ?
Marked response: 132 to 134 °C

Exam item: melting point for COc1ccc(-c2nnc(S)n2C(C)C)cc1 ?
Marked response: 218 to 220 °C

Exam item: melting point for Nc1ccc(C(=O)Nc2cccnc2)cc1 ?
Marked response: 212 to 214 °C

---

Answer each item with its documented melting point.

Exam item: melting point for CCCOc1cn(-c2ccccc2)nc1C(=O)O ?
Marked response: 119 to 121 °C

Exam item: melting point for O=C(O)CCc1nc2cc(Br)ccc2s1 ?
Marked response: 154 to 156 °C

Exam item: melting point for Cc1nc(-c2cccc(Br)c2)ccc1C(=O)O ?
Marked response: 181 to 183 °C

Exam item: melting point for O=Cc1cn(-c2ccc(Cl)c(Cl)c2)nn1 ?
Marked response: 175 to 177 °C

Exam item: melting point for CC(C)Nc1ccccn1 ?
Marked response: 41 to 43 °C

Exam item: melting point for COc1ccc(N)cc1NC(=O)c1cccc(F)c1 ?
Marked response: 100 to 102 °C

Exam item: melting point for Nc1cccc(CS(=O)C2CCOCC2)c1 (stereo not drawn) ?
Marked response: 125 to 127 °C

Exam item: melting point for CNC(=O)c1ccc(Cl)c(N)c1 ?
Marked response: 144 to 146 °C

Exam item: melting point for NS(=O)(=O)c1ccc2c(c1)CC(C(=O)O)CO2 (stereo not drawn) ?
Marked response: 213 to 215 °C

Exam item: melting point for COC(=O)c1cc(NC(=O)C(C)Cl)cc(C(=O)OC)c1 (stereo not drawn) ?
Marked response: 126 to 128 °C

Exam item: melting point for COC(=O)CCNc1ccncc1[N+](=O)[O-] ?
Marked response: 93 to 95 °C

Exam item: melting point for O=C1COc2cc(S(=O)(=O)Cl)c(Br)cc2N1 ?
Marked response: 223 to 225 °C

Exam item: melting point for NC(=O)C1COc2ccccc2O1 (stereo not drawn) ?
Marked response: 141 to 143 °C

---

Answer each item with its documented melting point.

Exam item: melting point for O=C(O)c1ccc(CS)c(F)c1 ?
Marked response: 136 to 138 °C

Exam item: melting point for O=C(O)c1cc(F)cnc1Cl ?
Marked response: 143 to 144 °C

Exam item: melting point for Cc1n[nH]c(C)n1 ?
Marked response: 127 to 131 °C

Exam item: melting point for CN1CCCCC/C1=N\S(=O)(=O)c1cccc(N)c1 ?
Marked response: 172 to 174 °C

Exam item: melting point for COC(=O)C(C#N)=NO ?
Marked response: 122 to 124 °C

Exam item: melting point for O=C1Cc2ncccc2N1 ?
Marked response: 189 to 191 °C

Exam item: melting point for COc1ccc(-n2c(C)cc(C(=O)O)c2C)cc1 ?
Marked response: 232 to 234 °C

Exam item: melting point for COC(=O)c1c(Cl)ncnc1Cl ?
Marked response: 50 to 52 °C

Exam item: melting point for Nc1ccc(N2CCCC2=O)c(Cl)c1 ?
Marked response: 184 to 186 °C

Exam item: melting point for Cc1cc(C)c2nc(O)cc(C)c2c1 ?
Marked response: 261 to 263 °C

Exam item: melting point for CC(C)C1(C(=O)O)CC1 ?
Marked response: 54 to 56 °C

Exam item: melting point for Nc1ccc(Oc2ccc(F)cc2)cn1 ?
Marked response: 74 to 76 °C

Exam item: melting point for Cc1ccc2[nH]cc(C(=O)C(F)(F)F)c2c1 ?
Marked response: 243 to 245 °C

Exam item: melting point for CCCCOc1ccc(C(=O)O)cc1OCCCC ?
Marked response: 140 to 142 °C

Exam item: melting point for O=C(O)CCc1n[nH]c(S)nc1=O ?
Marked response: 162 to 164 °C

Reference for the values: a melting point compilation (Tetko et al.)
